# Test system: rVSV-ΔG-EboV-GP
# Assay Overview: microbe, parasite or virus in culture
# Assay type: cell-based, Ebola pseudotype viruses
# Experimental Parameters: Zaire ebolavirus, HEK-293T, read-out: IC50 EboV-GP
Provide the recorded log10 of IC50 for the entries that follow.
Values below are the log10 of the recorded IC50, with µM as the unit.

State its log10 of IC50 for this compound: CC1(C)[C@@H]2CC[C@@]1(C)[C@H](OCCN1CCCCCC1)C2 (racemic)
2.05

State its log10 of IC50: CC1(C)[C@@H]2CC[C@@]1(C)[C@H](OCCN1CCCC1)C2 (racemic)
-0.92

Read off the recorded log10 of IC50 for CC1CCN(CCO[C@@H]2C[C@H]3CC[C@]2(C)C3(C)C)CC1 (racemic)
0.11

Look up log10 of IC50 of CC1(C)[C@@H]2CC[C@@]1(C)[C@H](OCCCN1CCCCC1)C2 (racemic) and report it.
2.67

Give recorded log10 of IC50. CC1(C)[C@@H]2CC[C@@]1(C)[C@H](OCCN1CCCCC1)C2 (racemic)
0.80

Name the recorded log10 of IC50 of the compound listed here: CC1(C)[C@@H]2CC[C@@]1(C)[C@H](OCCN1CCOCC1)C2 (racemic)
-0.22

Specify measured log10 of IC50 for CC1(C)[C@@H]2CC[C@@]1(C)[C@H](OCCCN1CCN(Cc3ccccc3)CC1)C2 (racemic) .
1.83

* * *

I'd be grateful if you could share measured CC50 for these entries.
# Assay Overview: in vitro
# Experimental Parameters: human
Provide the reading as a plain figure in mM.

Determine its reported CC50: CC1(C)[C@@H]2CC[C@@]1(C)[C@H](OCCCN1CCCCC1)C2 (racemic) [Compound 3b]
2.12

Given the molecule CN1CCN(CCO[C@@H]2C[C@H]3CC[C@]2(C)C3(C)C)CC1 (racemic) [Compound 5a] , write its reported CC50.
0.653

Give me measured CC50, please, for this molecule: CC1(C)[C@@H]2CC[C@@]1(C)[C@H](OCCCN1CCOCC1)C2 (racemic) [Compound 7b]
1.44

State its CC50: CC1(C)[C@@H]2CC[C@@]1(C)[C@H](OCCN1CCCC1)C2 (racemic) [Compound 2a]
0.497

* * *

# Assay Overview: Cytotoxicity in HEK293T cells (Table 5)
# Experimental Parameters: human
Readout: CC50
Reply with the number, then its unit.

Give recorded CC50. CC1(C)[C@@H]2CC[C@@]1(C)[C@H](OCCN1CCOCC1)C2 (racemic)
1160 µM

Please report CC50 for the following compound: CC1(C)[C@@H]2CC[C@@]1(C)[C@H](OCCN1CCCCC1)C2 (racemic)
151 µM

Read the entry CC1(C)[C@@H]2CC[C@@]1(C)[C@H](OCCN1CCCC1)C2 (racemic) and write its reported CC50.
358 µM

* * *

# System: vaccinia virus (strain Copenhagen)
# Assay Overview: microbe, parasite or virus in culture
# Assay type: cell-based
# Experimental Parameters: Orthopoxvirus vaccinia, Vero, read-out: IC50 VV
Readout: IC50 (µM)
Give the value, in units of µM, as a plain number.

Specify reported IC50 for the molecule shown: O=C(NN1C(=O)[C@@H]2[C@@H]3C=C[C@@H]([C@H]4C[C@@H]34)[C@@H]2C1=O)c1ccc(C(F)(F)F)cc1 [ST-246, reference compound]
0.01

Specify reported IC50 for the molecule shown: Nc1ccn(C[C@@H](CO)OCP(=O)(O)O)c(=O)n1 [Cidofovir, reference compound]
40

* * *

Would you kindly list CC50 for each of these compounds?
# Assay Overview: in vitro
# Experimental Parameters: human
Write down the numeric answer in µM and omit the unit.

Dear colleague, please send me the reported CC50 for CN1CCN(CCCO[C@@H]2C[C@H]3CC[C@]2(C)C3(C)C)CC1 (racemic) when you can.
109

Report CC50 for CN[C@H]1CC[C@@H](c2ccc(Cl)c(Cl)c2)c2ccccc21 [Sertraline, sertraline, reference compound]
408

Quick one: give measured CC50 for CC1(C)[C@@H]2CC[C@@]1(C)[C@H](OCCCN1CCCCCC1)C2 (racemic)
704

Answer with the recorded CC50 for the compound listed here: CC1CCN(CCCO[C@@H]2C[C@H]3CC[C@]2(C)C3(C)C)CC1 (racemic)
141

Given the compound CC1(C)[C@@H]2CC[C@@]1(C)[C@H](OCCN1CCCCC1)C2 (racemic) , write its reported CC50.
942

# return recorded CC50 for entry CC1(C)[C@@H]2CC[C@@]1(C)[C@H](OCCN1CCN(Cc3ccccc3)CC1)C2 (racemic)
575

Give the value of CC50 reported for the following: CC1CCN(CCO[C@@H]2C[C@H]3CC[C@]2(C)C3(C)C)CC1 (racemic)
447

Please indicate CC50 recorded for CC1(C)[C@@H]2CC[C@@]1(C)[C@H](OCCCN1CCN(Cc3ccccc3)CC1)C2 (racemic)
148

Write down CC50 measured for item CC1(C)[C@@H]2CC[C@@]1(C)[C@H](OCCN1CCCCCC1)C2 (racemic)
721

Answer with the recorded CC50 for the compound listed here: CC1(C)[C@@H]2CC[C@@]1(C)[C@H](OCCN1CCOCC1)C2 (racemic)
860

* * *

# Assay Overview: in vitro
# Experimental Parameters: dog
Readout: CC50

Return value of CC50 for input CC1(C)[C@@H]2CC[C@@]1(C)[C@H](OCCN1CCCC1)C2 (racemic) , no commentary.
> 1190 µM

Assign CC50 to the following record: CC1CCN(CCO[C@@H]2C[C@H]3CC[C@]2(C)C3(C)C)CC1 (racemic)
> 1070 µM

Check the records and state CC50 for CC1(C)[C@@H]2CC[C@@]1(C)[C@H](OCCN1CCCCC1)C2 (racemic)
> 1130 µM
